# reported Number of Phase I Metabolites; entries follow
Assay remarks: Metabolite identification, HLM incubation and rat model combined (UHPLC-Q-Exactive Orbitrap MS)
Design: species or system human; rat
Condition label: in vitro (HLM) and in vivo (rat) models together
Procedure: Sprague-Dawley male rats (200 ± 20 g) were obtained from SPF (Beijing) Biotechnology Co., Ltd. (Beijing, China). […] 162 Sprague-Dawley (SD) rats were randomly divided into 27 groups, with six rats in each group. […] The dosage administered was determined based on pre-experimental results, specifically selecting the dose that produced the highest level of metabolites in the blood samples collected 1 h after tail vein injection at concentrations of 0.5 mg/kg, 0.1 mg/kg, and 0.05 mg/kg, as shown in Table 6. […]

>  <Molecule>
C=CCCCn1nc(C(=O)NC(C(=O)OC)C(C)(C)C)c2ccccc21 (stereo not shown) [MDMB-4en-PINACA]

>  <Number of Phase I Metabolites>
12

$$$$
>  <Molecule>
CCCCCn1cc(C(=O)c2ccc3ccccc3c2)cc1-c1ccccc1C [JWH-370]

>  <Number of Phase I Metabolites>
9

$$$$
>  <Molecule>
CCCCCCn1nc(C(=O)NC(C(N)=O)C(C)(C)C)c2ccccc21 (stereo not shown) [ADB-HEXINACA]

>  <Number of Phase I Metabolites>
24

$$$$
>  <Molecule>
CCOC(=O)C(NC(=O)c1nn(CCCCCF)c2ccccc12)C(C)C (stereo not shown) [5F-EMB-PINACA]

>  <Number of Phase I Metabolites>
19

$$$$
>  <Molecule>
CCOC(=O)C(NC(=O)c1nn(CCCCCF)c2ccccc12)C(C)C (stereo not shown) [5F-EMB-PICA]

>  <Number of Phase I Metabolites>
9

$$$$
>  <Molecule>
COC(=O)C(NC(=O)c1cn(CCCCCF)c2ccccc12)C(C)(C)C (stereo not shown) [5F-MDMB-PICA]

>  <Number of Phase I Metabolites>
18

$$$$
>  <Molecule>
C=CCCCn1nc(C(=O)NC(C(N)=O)C(C)C)c2ccccc21 (stereo not shown) [AB-4en-PINACA]

>  <Number of Phase I Metabolites>
17

$$$$
>  <Molecule>
CCCCCn1cc(C(=O)c2ccc3ccccc3c2)cc1-c1ccccc1F [JWH-307]

>  <Number of Phase I Metabolites>
12

$$$$
>  <Molecule>
C=CCCn1nc(C(=O)NC(C(N)=O)C(C)(C)C)c2ccccc21 (stereo not shown) [ADB-3en-BUTINACA]

>  <Number of Phase I Metabolites>
18

$$$$
>  <Molecule>
O=C(c1cccc2ccccc12)c1nc2ccccc2n1CCCCCF [BIM-2201]

>  <Number of Phase I Metabolites>
17

$$$$
>  <Molecule>
COC(=O)C(NC(=O)c1nn(CCCCCF)c2ccccc12)C(C)(C)C (stereo not shown) [5F-ADB]

>  <Number of Phase I Metabolites>
17

$$$$
>  <Molecule>
CCCCCn1c(C(=O)c2cccc3ccccc23)nc2ccccc21 [BIM-018]

>  <Number of Phase I Metabolites>
13

$$$$
>  <Molecule>
CC(C)C(NC(=O)c1nn(Cc2ccc(F)cc2)c2ccccc12)C(N)=O (stereo not shown) [AB-FUBINACA]

>  <Number of Phase I Metabolites>
15

$$$$
>  <Molecule>
CCCCCn1cc(C(=O)C2C(C)(C)C2(C)C)c2ccccc21 [UR-144]

>  <Number of Phase I Metabolites>
15

$$$$
>  <Molecule>
CCCCCn1cc(C(=O)NC(C(N)=O)C(C)(C)C)c2cccnc21 (stereo not shown) [ADB-P7AICA]

>  <Number of Phase I Metabolites>
28

$$$$
>  <Molecule>
CC(C)(C)C(NC(=O)c1nn(CC2CCCCC2)c2ccccc12)C(N)=O (stereo not shown) [ADB-CHMINACA]

>  <Number of Phase I Metabolites>
18

$$$$
>  <Molecule>
CN1CCCCC1Cn1cc(C(=O)C2C(C)(C)C2(C)C)c2ccccc21 (stereo not shown) [AB-005]

>  <Number of Phase I Metabolites>
12

$$$$
>  <Molecule>
CC1(C)C(C(=O)c2cn(Cc3ccc(F)cc3)c3ccccc23)C1(C)C [FUB-144]

>  <Number of Phase I Metabolites>
11

$$$$
>  <Molecule>
C=CCCCn1nc(C(=O)NC(C(N)=O)C(C)(C)C)c2ccccc21 (stereo not shown) [ADB-4en-PINACA]

>  <Number of Phase I Metabolites>
25

$$$$

----------
# reported Number of Metabolites; entries follow
Assay remarks: Metabolite identification, HLM incubation and rat model combined (UHPLC-Q-Exactive Orbitrap MS)
Set-up: species or system human; rat
Condition label: in vitro (HLM) and in vivo (rat) models together

>  <Compound>
CC1(C)C(C(=O)c2cn(Cc3ccc(F)cc3)c3ccccc23)C1(C)C [FUB-144]

>  <Number of Metabolites>
18

$$$$
>  <Compound>
CCOC(=O)C(NC(=O)c1nn(CCCCCF)c2ccccc12)C(C)C (stereo not shown) [5F-EMB-PICA]

>  <Number of Metabolites>
19

$$$$
>  <Compound>
CCOC(=O)C(NC(=O)c1nn(CCCCCF)c2ccccc12)C(C)C (stereo not shown) [5F-EMB-PINACA]

>  <Number of Metabolites>
23

$$$$
>  <Compound>
COC(=O)C(NC(=O)c1nn(CCCCCF)c2ccccc12)C(C)(C)C (stereo not shown) [5F-ADB]

>  <Number of Metabolites>
25

$$$$
>  <Compound>
CCCCCn1cc(C(=O)C2C(C)(C)C2(C)C)c2ccccc21 [UR-144]

>  <Number of Metabolites>
24

$$$$
>  <Compound>
COC(=O)C(NC(=O)c1cn(CCCCCF)c2ccccc12)C(C)(C)C (stereo not shown) [5F-MDMB-PICA]

>  <Number of Metabolites>
25

$$$$
>  <Compound>
C=CCCCn1nc(C(=O)NC(C(N)=O)C(C)(C)C)c2ccccc21 (stereo not shown) [ADB-4en-PINACA]

>  <Number of Metabolites>
30

$$$$
>  <Compound>
CCCCCn1cc(C(=O)c2ccc3ccccc3c2)cc1-c1ccccc1C [JWH-370]

>  <Number of Metabolites>
14

$$$$
>  <Compound>
CCCCCn1cc(C(=O)NC(C(N)=O)C(C)(C)C)c2cccnc21 (stereo not shown) [ADB-P7AICA]

>  <Number of Metabolites>
40

$$$$
>  <Compound>
C=CCCCn1nc(C(=O)NC(C(N)=O)C(C)C)c2ccccc21 (stereo not shown) [AB-4en-PINACA]

>  <Number of Metabolites>
18

$$$$
>  <Compound>
CCCCCn1cc(C(=O)c2ccc3ccccc3c2)cc1-c1ccccc1F [JWH-307]

>  <Number of Metabolites>
20

$$$$
>  <Compound>
CC(C)C(NC(=O)c1nn(Cc2ccc(F)cc2)c2ccccc12)C(N)=O (stereo not shown) [AB-FUBINACA]

>  <Number of Metabolites>
19

$$$$
>  <Compound>
C=CCCCn1nc(C(=O)NC(C(=O)OC)C(C)(C)C)c2ccccc21 (stereo not shown) [MDMB-4en-PINACA]

>  <Number of Metabolites>
14

$$$$
>  <Compound>
CCCCCCn1nc(C(=O)NC(C(N)=O)C(C)(C)C)c2ccccc21 (stereo not shown) [ADB-HEXINACA]

>  <Number of Metabolites>
31

$$$$
>  <Compound>
O=C(c1cccc2ccccc12)c1nc2ccccc2n1CCCCCF [BIM-2201]

>  <Number of Metabolites>
29

$$$$
>  <Compound>
C=CCCn1nc(C(=O)NC(C(N)=O)C(C)(C)C)c2ccccc21 (stereo not shown) [ADB-3en-BUTINACA]

>  <Number of Metabolites>
22

$$$$
>  <Compound>
CC(C)(C)C(NC(=O)c1nn(CC2CCCCC2)c2ccccc12)C(N)=O (stereo not shown) [ADB-CHMINACA]

>  <Number of Metabolites>
25

$$$$
>  <Compound>
CN1CCCCC1Cn1cc(C(=O)C2C(C)(C)C2(C)C)c2ccccc21 (stereo not shown) [AB-005]

>  <Number of Metabolites>
17

$$$$
>  <Compound>
CCCCCn1c(C(=O)c2cccc3ccccc23)nc2ccccc21 [BIM-018]

>  <Number of Metabolites>
27

$$$$

----------
Assay remarks: Human liver microsomal incubation (in vitro metabolic model)
Condition label: HLM, 37 °C 1 h, then UDPGA 30 min; peak area of parent in experimental group vs degradation control group
Values of Conversion Rate greater than or equal to 70% map to label 1; values below map to label 0.

>  <Compound>
CCCCCn1cc(C(=O)NC(C(N)=O)C(C)(C)C)c2cccnc21 (stereo not shown)

>  <Class name>
label 0

$$$$
>  <Compound>
C=CCCCn1nc(C(=O)NC(C(N)=O)C(C)(C)C)c2ccccc21 (stereo not shown)

>  <Class name>
label 0

$$$$
>  <Compound>
O=C(c1cccc2ccccc12)c1nc2ccccc2n1CCCCCF

>  <Class name>
label 1

$$$$
>  <Compound>
CN1CCCCC1Cn1cc(C(=O)C2C(C)(C)C2(C)C)c2ccccc21 (stereo not shown)

>  <Class name>
label 0

$$$$
>  <Compound>
COC(=O)C(NC(=O)c1cn(CCCCCF)c2ccccc12)C(C)(C)C (stereo not shown)

>  <Class name>
label 1

$$$$
>  <Compound>
C=CCCn1nc(C(=O)NC(C(N)=O)C(C)(C)C)c2ccccc21 (stereo not shown)

>  <Class name>
label 1

$$$$
>  <Compound>
CCCCCn1c(C(=O)c2cccc3ccccc23)nc2ccccc21

>  <Class name>
label 1

$$$$
>  <Compound>
COC(=O)C(NC(=O)c1nn(CCCCCF)c2ccccc12)C(C)(C)C (stereo not shown)

>  <Class name>
label 1

$$$$
>  <Compound>
CCCCCn1cc(C(=O)C2C(C)(C)C2(C)C)c2ccccc21

>  <Class name>
label 0

$$$$
>  <Compound>
CC1(C)C(C(=O)c2cn(Cc3ccc(F)cc3)c3ccccc23)C1(C)C

>  <Class name>
label 0

$$$$
>  <Compound>
CCOC(=O)C(NC(=O)c1nn(CCCCCF)c2ccccc12)C(C)C (stereo not shown) [5F-EMB-PINACA]

>  <Class name>
label 1

$$$$
>  <Compound>
CCCCCn1cc(C(=O)c2ccc3ccccc3c2)cc1-c1ccccc1F

>  <Class name>
label 0

$$$$
>  <Compound>
CCCCCn1cc(C(=O)c2ccc3ccccc3c2)cc1-c1ccccc1C

>  <Class name>
label 0

$$$$
>  <Compound>
CCOC(=O)C(NC(=O)c1nn(CCCCCF)c2ccccc12)C(C)C (stereo not shown) [5F-EMB-PICA]

>  <Class name>
label 1

$$$$
>  <Compound>
CC(C)(C)C(NC(=O)c1nn(CC2CCCCC2)c2ccccc12)C(N)=O (stereo not shown)

>  <Class name>
label 0

$$$$
>  <Compound>
CC(C)C(NC(=O)c1nn(Cc2ccc(F)cc2)c2ccccc12)C(N)=O (stereo not shown)

>  <Class name>
label 1

$$$$
>  <Compound>
CCCCCCn1nc(C(=O)NC(C(N)=O)C(C)(C)C)c2ccccc21 (stereo not shown)

>  <Class name>
label 0

$$$$
>  <Compound>
C=CCCCn1nc(C(=O)NC(C(N)=O)C(C)C)c2ccccc21 (stereo not shown)

>  <Class name>
label 1

$$$$

Origin of values: paper PMC12250893
